Let's look at some molecules and their measured GI50.
Test system: KM12
Test: NCI tumour cell line growth inhibition, 48 h
Active and inactive are the calls of the source. No stated cut-off is given here; in the data, active = GI50 up to about 1.1 µM and inactive = higher.

These recorded examples may help you get a feel for the data.
Cc1nc2cc(C(F)(F)F)ccc2[nH]c1=O | > 100 µM (inactive)
CCS[C@H]1NC(=O)C1[C@H](C)O[Si](C)(C)C(C)(C)C (stereo partly specified) | > 100 µM (inactive)
CC(Nc1n[nH]c(=O)c2c1nnn2Cc1ccccc1)c1ccccc1 (stereo unspecified) | > 100 µM (inactive)
O=C(c1cccnc1)N1N=C(c2ccccc2)CC1(O)c1cc(F)c(Cl)cc1Cl (stereo unspecified) | 25.6 µM (inactive)
C=C1C(=O)OC2C3C(=C)[C@@H](OC(C)=O)CC3C(C)=CC(OC(=O)C(C)(O)C(C)OC(C)=O)[C@@H]12 (stereo partly specified) | 15.2 µM (inactive)

Exercise: Quick check: GI50 of CCO/C([O-])=C(/C=O)[n+]1c(C)n(C)c2ccccc21 ?
Key: > 100 µM (inactive)

Exercise: Quick check: GI50 of Cc1nc2c(c(=O)[nH]1)S/C(=C(/C#N)c1nc3ccccc3[nH]1)N2c1ccccc1 ?
Key: > 100 µM (inactive)

Exercise: Quick check: GI50 of N#C/C(=C\c1ccncc1)c1csc2ccccc12 ?
Key: 18.5 µM (inactive)

Exercise: Quick check: GI50 of COC(=O)c1cc(C#Cc2cc(OC)ccc2OC)ccc1OC ?
Key: 43.9 µM (inactive)

Exercise: Quick check: GI50 of CC(C)(NO)/C(=N\O)c1ccco1 ?
Key: > 100 µM (inactive)

Exercise: Quick check: GI50 of ClC1c2ccccc2C2(c3ccccc3)OOC1(c1ccccc1)O2 (stereo unspecified) ?
Key: 1.77 µM (inactive)
